Hey, just so you know, these numbers are from patent US20230102554A1.

biological target: Human PDGFRβ, cytoplasmic domain (GST-PDGFRβ) (Homo sapiens)
pIC50: −log10 of the molar value.
Value Type: pIC50

Request: Query pIC50 on Human PDGFRβ, cytoplasmic domain (GST-PDGFRβ) (Homo sapiens) for CCn1cc2ncc(N[C@@H](C)c3cccc(NC(=O)c4cnc(OC(C)C)c(Cl)c4)c3)nc2n1
Result: > 6.52

Request: Quick check: pIC50 on Human PDGFRβ, cytoplasmic domain (GST-PDGFRβ) (Homo sapiens), item C[C@H](Nc1cnc2cnn(C)c2n1)c1cccc(NC(=O)c2cc(C(F)(F)F)n(C)n2)c1 ?
Result: > 6.52

Request: Report pIC50 for CCn1cc(C(=O)Nc2cccc([C@H](C)Nc3cnc4cnn(C)c4n3)c2)cn1 tested on Human PDGFRβ, cytoplasmic domain (GST-PDGFRβ) (Homo sapiens).
Result: > 6.52

Request: Under Human PDGFRβ, cytoplasmic domain (GST-PDGFRβ) (Homo sapiens): pIC50 value of CCn1cc2ncc(N[C@@H](C)c3cccc(NC(=O)Cc4ccc(F)c(C)c4)c3)nc2n1 ?
Result: > 6.52

###

molecular target: Human PDGFRα, cytoplasmic domain (GST-PDGFRα) (Homo sapiens); assay: Human PDGFRα biochemical inhibition assay (off-chip Mobility Shift Assay)
Sequence (P16234 550-1089 T674I): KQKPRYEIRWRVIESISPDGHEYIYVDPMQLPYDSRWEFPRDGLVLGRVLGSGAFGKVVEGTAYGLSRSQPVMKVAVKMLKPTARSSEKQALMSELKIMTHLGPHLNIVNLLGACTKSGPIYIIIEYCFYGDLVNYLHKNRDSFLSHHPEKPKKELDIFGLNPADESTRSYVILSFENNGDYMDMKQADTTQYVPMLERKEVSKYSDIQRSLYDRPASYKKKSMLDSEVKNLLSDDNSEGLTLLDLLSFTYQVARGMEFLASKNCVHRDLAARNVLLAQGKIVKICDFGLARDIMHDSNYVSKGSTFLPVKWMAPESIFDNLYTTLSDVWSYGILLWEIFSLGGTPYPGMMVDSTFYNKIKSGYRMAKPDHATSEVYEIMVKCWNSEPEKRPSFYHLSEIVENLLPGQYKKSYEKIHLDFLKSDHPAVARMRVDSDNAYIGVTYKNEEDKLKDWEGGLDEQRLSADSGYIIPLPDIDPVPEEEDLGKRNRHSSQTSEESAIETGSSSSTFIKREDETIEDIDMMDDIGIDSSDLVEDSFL
pIC50: −log10 of the molar value.
The following compounds are listed with their measured pIC50 values.

Recorded pIC50, per entry:
- Compound: "CC(C)c1cc(C(=O)Nc2cccc([C@H](C)Nc3cnc4cnn(C)c4n3)c2)on1 [Compound 145]"
  Tgt: "Human PDGFRα, cytoplasmic domain (GST-PDGFRα) (Homo sapiens)"
  pIC50: "> 6.52"
- Compound: "CCOc1ncc(C(=O)Nc2cccc([C@H](C)Nc3cnc4cn(CC)nc4n3)c2)s1 [Compound 362]"
  Tgt: "Human PDGFRα, cytoplasmic domain (GST-PDGFRα) (Homo sapiens)"
  pIC50: "> 6.52"
- Compound: "CCn1cc2ncc(N[C@@H](C)c3cccc(NC(=O)Cc4cccc(C)c4)c3)nc2n1 [Compound 622]"
  Tgt: "Human PDGFRα, cytoplasmic domain (GST-PDGFRα) (Homo sapiens)"
  pIC50: "> 6.52"

--- query ---
Request: Could you tell me which pIC50 is on file for Cc1cncc(C(=O)Nc2cccc([C@H](C)Nc3cnc4cnn(C5CCOCC5)c4n3)c2)c1 [Compound 180] ?
Result: 6.00 to 6.52

###

Observed IC50 for Human PDGFRβ, cytoplasmic domain (GST-PDGFRβ) (Homo sapiens, UniProt P09619), reported per entry below.

Request: Form field - read-out: IC50; system: Human PDGFRβ, cytoplasmic domain (GST-PDGFRβ) (Homo sapiens, UniProt P09619); submitted item: Cc1n[nH]c2ncc(N[C@@H](C)c3cccc(NC(=O)c4ccc(C(F)F)s4)c3)nc12
Sequence (P09619 with tags, fused parts or gaps): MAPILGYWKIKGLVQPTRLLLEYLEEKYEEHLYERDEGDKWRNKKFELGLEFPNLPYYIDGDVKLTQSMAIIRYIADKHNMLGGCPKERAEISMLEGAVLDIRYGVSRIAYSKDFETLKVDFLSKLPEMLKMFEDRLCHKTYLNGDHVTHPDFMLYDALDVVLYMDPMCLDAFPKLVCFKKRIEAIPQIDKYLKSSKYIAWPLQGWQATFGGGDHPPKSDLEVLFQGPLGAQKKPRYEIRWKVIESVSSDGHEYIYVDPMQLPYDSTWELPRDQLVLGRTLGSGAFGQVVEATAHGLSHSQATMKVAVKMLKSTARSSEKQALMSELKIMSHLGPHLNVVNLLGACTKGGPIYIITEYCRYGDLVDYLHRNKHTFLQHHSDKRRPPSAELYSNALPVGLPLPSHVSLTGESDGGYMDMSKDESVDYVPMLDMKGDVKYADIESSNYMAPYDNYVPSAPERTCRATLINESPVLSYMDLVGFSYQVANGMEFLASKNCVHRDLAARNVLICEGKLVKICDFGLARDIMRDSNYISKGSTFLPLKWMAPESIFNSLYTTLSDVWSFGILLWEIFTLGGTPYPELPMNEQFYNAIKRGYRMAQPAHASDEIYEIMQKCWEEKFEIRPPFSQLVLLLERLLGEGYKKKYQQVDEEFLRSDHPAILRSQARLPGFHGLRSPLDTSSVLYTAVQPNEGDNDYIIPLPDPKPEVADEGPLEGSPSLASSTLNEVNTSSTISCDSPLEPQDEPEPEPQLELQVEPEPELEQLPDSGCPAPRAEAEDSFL
Result: < 300 nM

Request: Notebook entry, Human PDGFRβ, cytoplasmic domain (GST-PDGFRβ) (Homo sapiens, UniProt P09619) assay: IC50 of Cc1cncc(C(=O)Nc2cccc([C@H](C)Nc3cnc4cc(C)oc4c3)c2)c1 = ?
Result: < 300 nM

Request: Write down the reported IC50 of CCn1cc2ncc(N[C@@H](C)c3cc(NC(=O)c4cnc(NC)c(C)c4)ccc3F)nc2n1 , test system: Human PDGFRβ, cytoplasmic domain (GST-PDGFRβ) (Homo sapiens, UniProt P09619).
Result: 300 to 1000 nM

Request: Form field - read-out: IC50; system: Human PDGFRβ, cytoplasmic domain (GST-PDGFRβ) (Homo sapiens, UniProt P09619); submitted item: CCOC(=O)c1ccc(C(=O)Nc2cccc([C@H](C)Nc3cnc4cnn(C)c4n3)c2)cc1C
Result: < 300 nM
